Test system: P. falciparum strain FcB1
Assay: In vitro antiplasmodial activity, SYBR Green I-based fluorescence assay
Assay type: cell-based, Plasmodium falciparum
Settings: Plasmodium falciparum, FCB1, 48 h, P. falciparum FcB1 (chloroquine-resistant strain), 48 h; read-out: IC50
observed.property: IC50 (nM)

(I) COc1ccc2c(c1)C(=O)C1=C(OC(C)(C)CC1)C2=O
(II) COc1ccc2c(c1)C(=O)C1=C(OC(C)C1(C)C)C2=O (stereo not shown)
(III) COc1ccc2c(c1)C1=C(CCC(C)(C)O1)C(=O)C2=O
Request: Lab note: order the above by reported IC50, lowest first, highest last. Use the labels to give the requested order.
Result: III, II, I

----------
TI (Therapeutic Index = CC50/IC50) values by entry
System: P. falciparum strain FcB1
Test: In vitro antiplasmodial activity, SYBR Green I-based fluorescence assay
Type: cell-based, Plasmodium falciparum
Description: The in vitro anti-malarial activity was investigated using the SYBR Green I-based fluorescence assay. […] Fluorescence data were acquired using a fluorescence plate reader (BMG Fluostar Galaxy Labtech) with excitation and emission wavelengths at 485 nm and 518 nm, respectively. […]
Response field accepts a number only; no unit should be typed.

Below, each entry is followed by its recorded TI (Therapeutic Index = CC50/IC50) result.
>  <compound>
COc1cccc2c1C1=C(C(=O)C2=O)C(C)(C)C(C)O1 (stereo not shown)

>  <target.of.assay>
P. falciparum strain FcB1

>  <observed.property>
TI (Therapeutic Index = CC50/IC50)

>  <measured.value>
3.83

$$$$
>  <compound>
COc1ccc2c(c1)C(=O)C1=C(C2=O)C(C)(C)C(C)O1 (stereo not shown)

>  <target.of.assay>
P. falciparum strain FcB1

>  <observed.property>
TI (Therapeutic Index = CC50/IC50)

>  <measured.value>
8.53

$$$$
>  <compound>
COc1ccc2c(c1)C1=C(C(=O)C2=O)C(C)(C)C(C)O1 (stereo not shown)

>  <target.of.assay>
P. falciparum strain FcB1

>  <observed.property>
TI (Therapeutic Index = CC50/IC50)

>  <measured.value>
2.15

$$$$
>  <compound>
COc1ccc2c(c1)C(=O)C1=C(OC(C)C1(C)C)C2=O (stereo not shown)

>  <target.of.assay>
P. falciparum strain FcB1

>  <observed.property>
TI (Therapeutic Index = CC50/IC50)

>  <measured.value>
9.81

$$$$
>  <compound>
COc1ccc2c(c1)C1=C(CCC(C)(C)O1)C(=O)C2=O

>  <target.of.assay>
P. falciparum strain FcB1

>  <observed.property>
TI (Therapeutic Index = CC50/IC50)

>  <measured.value>
2.21

$$$$

Moving on to another compound below.
Request: Lookup: TI (Therapeutic Index = CC50/IC50) / P. falciparum strain FcB1 / COc1ccc2c(c1)C(=O)C(=O)C1=C2OC(C)C1(C)C (stereo not shown)
Result: 1.70

----------
Biological target: NQO2 (Homo sapiens)
Construct: The experiments were conducted with purified enzyme NQO2 (20 µg/mL)
Test: EPR measurement of free radicals (ROS) produced after metabolism by NQO2
Assay type: biochemical
Conditions: EPR, purified NQO2 20 µg/mL, compound 125 µM, BNAH 1 mM, DMPO 125 mM; grades - to + + + + +, key not given

>  <molecule>
COc1cccc2c1C1=C(C(=O)C2=O)C(C)(C)C(C)O1 (centres unmarked)

>  <ROS after NQO2 Reduction>
+ +

$$$$
>  <molecule>
COc1ccc2c(c1)C(=O)C(=O)C1=C2OC(C)C1(C)C (centres unmarked)

>  <ROS after NQO2 Reduction>
+ + +

$$$$
>  <molecule>
COc1ccc2c(c1)C(=O)C1=C(OC(C)(C)CC1)C2=O

>  <ROS after NQO2 Reduction>
+ + +

$$$$
>  <molecule>
COc1ccc2c(c1)C(=O)C1=C(C2=O)C(C)(C)C(C)O1 (centres unmarked)

>  <ROS after NQO2 Reduction>
+ + +

$$$$

----------
Target: NQO2 (Homo sapiens, UniProt P16083)
Construct: The experiments were conducted with purified enzyme NQO2 (20 µg/mL)
Sequence (P16083 whole entry, species assumed): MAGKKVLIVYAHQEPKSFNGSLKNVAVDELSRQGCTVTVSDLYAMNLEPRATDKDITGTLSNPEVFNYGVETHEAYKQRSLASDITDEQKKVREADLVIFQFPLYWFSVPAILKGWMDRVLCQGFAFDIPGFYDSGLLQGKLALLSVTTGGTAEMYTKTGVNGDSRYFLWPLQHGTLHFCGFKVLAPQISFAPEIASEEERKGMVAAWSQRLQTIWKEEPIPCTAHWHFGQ
Test: EPR measurement of free radicals (ROS) produced after metabolism by NQO2
Type: biochemical
Settings: EPR with DMPO spin trap
From the text: As in previous work, we used an indirect assay to characterize the substrates. […] Thus, using an EPR-based assay, it was possible to evaluate the potency of the process by quantifying those bursts by measuring for the presence of free radicals. […] We measured the ability of the selected compounds to produce superoxide radicals during the redox cycle of NQO2 by EPR spectroscopy. […]
observed.property: radical production after reduction by NQO2

>  <compound>
COc1ccc2c(c1)C(=O)C1=C(C2=O)C(C)(C)C(C)O1 (centres unmarked)

>  <target.of.assay>
NQO2 (Homo sapiens, UniProt P16083)

>  <measured.value>
produced radicals

$$$$
>  <compound>
COc1ccc2c(c1)C(=O)C1=C(OC(C)(C)CC1)C2=O

>  <target.of.assay>
NQO2 (Homo sapiens, UniProt P16083)

>  <measured.value>
produced radicals

$$$$

----------
Assay: Cytotoxic evaluation on the Hela cell line (MTT assay)
Format: cell-based
Conditions: human, Hela cells
CC50 at 72 h values by entry
Write it as a number; the unit nM goes unstated.

Below, each entry is followed by its recorded CC50 at 72 h result.
>  <compound>
COc1cccc2c1C1=C(C(=O)C2=O)C(C)(C)C(C)O1 (centres unmarked) [Compound 1]

>  <measured.value>
2420

$$$$
>  <compound>
COc1ccc2c(c1)C1=C(CCC(C)(C)O1)C(=O)C2=O [Compound 7]

>  <measured.value>
1660

$$$$
>  <compound>
COc1ccc2c(c1)C1=C(C(=O)C2=O)C(C)(C)C(C)O1 (centres unmarked) [Compound 2]

>  <measured.value>
1250

$$$$
>  <compound>
COc1ccc2c(c1)C(=O)C1=C(OC(C)C1(C)C)C2=O (centres unmarked) [Compound 5]

>  <measured.value>
14900

$$$$
>  <compound>
COc1cccc2c1C(=O)c1c(O)c3c(c(O)c1C2=O)C[C@@](O)(C(=O)CO)C[C@@H]3O[C@H]1C[C@H](N)[C@H](O)[C@H](C)O1 [Doxorubicin, doxorubicin, reference compound]

>  <measured.value>
311

$$$$

Request: Entry COc1ccc2c(c1)C(=O)C1=C(C2=O)C(C)(C)C(C)O1 (centres unmarked) [Compound 4] has what CC50 at 72 h?
Result: 11800

Request: Further, for COc1ccc2c(c1)C(=O)C(=O)C1=C2OC(C)C1(C)C (centres unmarked) [Compound 3] ?
Result: 1430

----------
pIC50 values by entry
System: P. falciparum strain FcB1
Assay: In vitro antiplasmodial activity, SYBR Green I-based fluorescence assay
Format: cell-based, Plasmodium falciparum
Settings: Plasmodium falciparum, FCB1, 48 h, P. falciparum FcB1 (chloroquine-resistant strain), 48 h; read-out: IC50
Answer as the number alone; pIC50 is minus log10 of concentration in mol/L.

Below, each entry is followed by its recorded pIC50 result.
>  <molecule>
COc1ccc2c(c1)C(=O)C1=C(C2=O)C(C)(C)C(C)O1 (stereo not shown)

>  <pIC50>
5.86

$$$$
>  <molecule>
COc1cccc2c1C1=C(C(=O)C2=O)C(C)(C)C(C)O1 (stereo not shown)

>  <pIC50>
6.20

$$$$

Moving on to another molecule below.
Request: Entry COc1ccc2c(c1)C(=O)C(=O)C1=C2OC(C)C1(C)C (stereo not shown) has what pIC50?
Result: 6.07
